molecular target: Recombinant STAT3 protein (STAT3 (G127-I722)) (Homo sapiens); construct: Recombinant STAT3 protein (STAT3 (G127-I722)); test: STAT3 Fluorescence Polarization (FP) Assay; type: binding; conditions: STAT3 (G127-I722) 25 nM, probe 5-FAM-GpYLPQTV-NH2 2 nM, 45-minute incubation; read-out: STAT3 (FP assay IC50 class)
Reported IC50 by item:
recordedMetric: IC50

[
  {
    "molecule": "O=C(N[C@H]1CCCC[C@H]2CC[C@@H](C(=O)N3C[C@@H](c4cc[nH]c(=O)c4)CC34CC4)N2C1=O)c1ccc2ccc(CP(=O)(O)O)cc2c1",
    "experimentalTarget": "Recombinant STAT3 protein (STAT3 (G127-I722)) (Homo sapiens)",
    "testResult": "1000 to 10000 nM"
  },
  {
    "molecule": "Cc1ccncc1C1CN(C(=O)[C@@H]2CC[C@@H]3C[C@H](C)C[C@H](NC(=O)c4cc5cc([C@H](F)P(=O)(O)O)ccc5s4)C(=O)N32)C1 (single isomer, unassigned)",
    "experimentalTarget": "Recombinant STAT3 protein (STAT3 (G127-I722)) (Homo sapiens)",
    "testResult": "< 100 nM"
  },
  {
    "molecule": "C/C1=C/C[C@H](NC(=O)c2cc3cc(CP(=O)(O)O)ccc3s2)C(=O)N2[C@H](CC[C@H]2C(=O)N2CC(c3cnccc3C)C2)C1",
    "experimentalTarget": "Recombinant STAT3 protein (STAT3 (G127-I722)) (Homo sapiens)",
    "testResult": "100 to 1000 nM"
  },
  {
    "molecule": "CN(C)c1ccncc1C1CN(C(=O)[C@@H]2CC[C@@H]3CCC[C@H](NC(=O)c4cc5cc([C@H](F)P(=O)(O)O)ccc5s4)C(=O)N32)C1 (single isomer, unassigned)",
    "experimentalTarget": "Recombinant STAT3 protein (STAT3 (G127-I722)) (Homo sapiens)",
    "testResult": "< 100 nM"
  },
  {
    "molecule": "O=C(N[C@H]1CCCC[C@H]2CC[C@@H](C(=O)N[C@H]3CN(C(=O)OC4CC4)C[C@@H]3F)N2C1=O)c1cc2cc(C(F)P(=O)(O)O)ccc2s1 (some centres unmarked)",
    "experimentalTarget": "Recombinant STAT3 protein (STAT3 (G127-I722)) (Homo sapiens)",
    "testResult": "1000 to 10000 nM"
  }
]

====

biological target: Recombinant STAT3 protein (STAT3 (G127-I722)) (Homo sapiens, UniProt P40763); construct: Recombinant STAT3 protein (STAT3 (G127-I722)); assay: STAT3 Fluorescence Polarization (FP) Assay; format: binding; settings: STAT3 (G127-I722) 25 nM, probe 5-FAM-GpYLPQTV-NH2 2 nM, 45-minute incubation; read-out: STAT3 (FP assay IC50 class)
Sequence (P40763 127-722): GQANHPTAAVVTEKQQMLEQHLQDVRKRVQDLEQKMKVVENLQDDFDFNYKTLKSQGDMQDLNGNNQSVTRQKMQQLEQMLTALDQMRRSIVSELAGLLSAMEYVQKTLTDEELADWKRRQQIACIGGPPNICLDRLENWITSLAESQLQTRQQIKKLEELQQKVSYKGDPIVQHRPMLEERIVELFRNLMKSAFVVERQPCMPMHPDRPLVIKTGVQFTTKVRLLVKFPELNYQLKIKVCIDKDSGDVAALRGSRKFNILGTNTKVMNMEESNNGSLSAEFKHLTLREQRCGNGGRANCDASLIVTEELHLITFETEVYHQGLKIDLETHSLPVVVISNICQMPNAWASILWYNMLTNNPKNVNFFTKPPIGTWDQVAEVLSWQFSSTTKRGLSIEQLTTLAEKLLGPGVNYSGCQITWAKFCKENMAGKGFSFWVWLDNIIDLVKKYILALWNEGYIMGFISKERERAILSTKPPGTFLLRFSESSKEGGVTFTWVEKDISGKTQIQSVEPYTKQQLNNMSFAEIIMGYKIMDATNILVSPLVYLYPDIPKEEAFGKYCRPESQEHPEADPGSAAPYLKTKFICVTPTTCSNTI

[
  {
    "compound": "O=C(N[C@H]1CCCC[C@H]2CC[C@@H](C(=O)NC3CN(C(=O)OCc4ccccc4)C3)N2C1=O)c1cc2cc(C(F)P(=O)(O)O)ccc2s1 (stereo partly drawn)",
    "IC50": "100 to 1000 nM"
  },
  {
    "compound": "C[C@@H]1CC[C@H](NC(=O)c2cc3cc(CP(=O)(O)O)ccc3s2)C(=O)N2[C@H](CC[C@H]2C(=O)N2CC(c3cnccc3F)C2)C1",
    "IC50": "< 100 nM"
  },
  {
    "compound": "Cc1cc(N(C)C)ncc1C1CN(C(=O)[C@@H]2CC[C@@H]3CCC[C@H](NC(=O)c4cc5cc(CP(=O)(O)O)ccc5s4)C(=O)N32)C1",
    "IC50": "1000 to 10000 nM"
  }
]
